# target entity: T1, human CD40 extracellular domain with C-terminal His-AviTag (human, UniProt P25942 21-193)
# T1 construct: not shown: C-terminal His-AviTag
# T1 sequence (P25942 21-193): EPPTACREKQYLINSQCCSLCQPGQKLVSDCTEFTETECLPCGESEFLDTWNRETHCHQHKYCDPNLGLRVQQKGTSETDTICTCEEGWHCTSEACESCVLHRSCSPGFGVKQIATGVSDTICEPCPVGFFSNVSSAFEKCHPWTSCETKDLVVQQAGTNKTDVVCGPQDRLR
# method summary: SPR, antibody captured, CD40 ECD analyte;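 also: biacore SPR at 25 °C in PBS-T pH 7.4, CD40 ECD analyte from 300 nM in 1:3 series, 300 s association, up to 1200 s dissociation, double-referenced, Langmuir 1:1 fit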
Here the recorded koff is given for each entry.
Answer format: numeric, s⁻¹ implied, no suffix.

binder: P1AE0403, humanized anti-CD40 antibody VH2d/VL2a, huIgG1_LALA_PG (antibody, V domains shown, also called VL2a/VH2d) VH: EVQLLESGGGLVQPGGSLRLSCAASGYSFTGYYIHWVRQAPGKGLEWVGRVIPNAGGTSYGDSVKGRFTISVDNSKNTAYLQMNSLRAEDTAVYYCAREGIYWWGQGTTVTVSS VL: DIQMTQSPSSLSASVGDRVTITCRSSQSLVHSNGNTFLHWYQQKPGKAPKLLIYTVSNRFSGVPSRFSGSGSGTDFTLTISSLQPEDFATYFCSQTTHVPWTFGGGTKVEIKR
reading: 0.0407

# input Recorded koff for P1AE0817, humanized anti-CD40 antibody VH1a/VL1a, huIgG1_LALA_PG (antibody, V domains shown) VH: QVQLVQSGAEVKKPGASVKVSCKASGYSFTGYYIHWVRQAPGQSLEWMGRVIPNAGGTSYNQKFKGRVTLTVDKSISTAYMELSRLRSDDTAVYYCAREGIYWWGQGTTVTVSS VL: DIVMTQTPLSLSVTPGQPASISCRSSQSLVHSNGNTFLHWYLQKPGQSPQLLIYTVSNRFSGVPDRFSGSGSGTDFTLKISRVEAEDVGVYFCSQTTHVPWTFGGGTKVEIKR , please?
# output 0.00593

# input Param item = P1AE0401, humanized anti-CD40 antibody VH2b/VL2a, huIgG1_LALA_PG (antibody, V domains shown, huIgG1 with effector silent Fc (P329G, L234A, L235A); also called VL2a/VH2b) VH: EVQLLESGGGLVQPGGSLRLSCAASGYSFTGYYIHWVRQAPGKSLEWVGRVIPNAGGTSYNQKFKGRFTISVDNSKNTAYLQMNSLRAEDTAVYYCAREGIYWWGQGTTVTVSS VL: DIQMTQSPSSLSASVGDRVTITCRSSQSLVHSNGNTFLHWYQQKPGKAPKLLIYTVSNRFSGVPSRFSGSGSGTDFTLTISSLQPEDFATYFCSQTTHVPWTFGGGTKVEIK ; retrieve measured koff.
# output 0.00787

Entry source: patent US20250320305A1
